- Test system: NCI-H460 lung
- Test Method Notes: NCI tumour cell line growth inhibition, 48 h
# key: entry, value: TGI
// return numeric value only (unit: µM, not printed)

Query :: Any idea what TGI was measured for "COc1cc(Nc2cn[nH]c2-c2ccc(Cl)cc2)cc(OC)c1OC" ?
Result :: 19.1

Now for a further molecule.
Query :: What measured TGI goes with "Oc1ccc(Cl)cc1Cc1cc(Cl)cc(Cl)c1O" ?
Result :: 13.2

* * *

Recorded measurements of TGI, one per entry
- Test system: SK-OV-3 ovarian
- Test Method Notes: NCI tumour cell line growth inhibition, 48 h
Response body: numeric value in µM, unit text excluded.

Query :: Requested field: TGI. Item: CC1=Nc2ccccc2C1C(Cc1ccccc1N)c1c(C)[nH]c2ccccc12 (stereo not given)
Result :: 53.3

More entries:
Query :: TGI for "CNCCCn1cc(C2=C(c3cn(C)c4ccccc34)C(=O)NC2=O)c2ccccc21" ?
Result :: 22.5

Query :: Give the measured TGI of "COc1cc(Nc2cn[nH]c2-c2ccc(Cl)cc2)cc(OC)c1OC" .
Result :: 36.6

* * *

- Test system: RXF 393 renal
- Test Method Notes: NCI tumour cell line growth inhibition, 48 h
Metric: TGI (µM)
Record the value in µM, omitting the unit from your answer.

# example entries with known answers
Query :: What does the record list as TGI for "C=C(F)C(=O)N1CCN(c2nc(OC[C@@H]3CCCN3C)nc3c2CCN(c2cccc4cccc(Cl)c24)C3)C[C@@H]1CC#N" ?
Result :: 2.66

Query :: Suppose we examine the compound "CCC[CH2][Ge]([CH2]CCC)([CH2]CCC)[O]C(=O)CC(=O)c1ccccc1" ; what TGI value has been reported?
Result :: 3.65

Query :: Quick one: TGI of CC(C)(C)C(=O)OCOP(=O)(OCOC(=O)C(C)(C)C)C1CCCN(O)C1=O (centres undefined) ?
Result :: 1.74

Now look at this entry.
Query :: Which TGI reading was recorded for the compound COc1ccc(CC2c3cc(Oc4cc(CC5c6cc(OC)c(OC)cc6CCN5C)ccc4O)c(OC)cc3CCN2C)cc1 (centres undefined) ?
Result :: 12

* * *

Here, each record is paired with measured TGI data.
- Tested on: XF 498 CNS
- Test Method Notes: NCI tumour cell line growth inhibition, 48 h

Query :: For the molecule CCCCOC(=O)C1C(c2ccc(Cl)cc2)NC(c2ccc(Cl)cc2)C(C(=O)OCCCC)S1(=O)=O (stereo not drawn) , what TGI is on record?
Result :: > 100 µM

Query :: // query TGI value for entry "O=S(=O)([O-])c1ccc2c(c1)-c1nc-2nc2[n-]c(nc3nc(nc4[n-]c(n1)c1ccc(S(=O)(=O)[O-])cc41)-c1cc(S(=O)(=O)[O-])ccc1-3)c1ccc(S(=O)(=O)[O-])cc21.[Cu+2].[Na+]"
Result :: > 100 µM

Query :: I'd like to know its TGI. The molecule in question is "CC(C)(C)OC(=O)NCC(=O)OCc1ccccc1"
Result :: > 100 µM

Query :: Form field: reported TGI of "CCN(CC)CCOc1ccc(/C=C(\C#N)c2ccc(OCCN(CC)CC)cc2)cc1"
Result :: 29.3 µM

Query :: Consider the molecule "C[C@]12C=CC(=O)C=C1CC[C@H]1[C@@H]3C[C@@H](O)[C@](O)(C(=O)CO)[C@@]3(C)C[C@H](O)[C@@]12F" and give its measured TGI.
Result :: > 100 µM

Next up:
Query :: Please report the recorded TGI for O=[N+]([O-])c1nccn1CC(O)c1ccc(F)cc1 (stereo not drawn) .
Result :: > 100 µM
